The measured values listed here are drawn from the supplement of paper PMC11061612.

- Tested on: SW13 (Other Solid Carcinomas);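 note: after 72 h of two-drug dosing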
- test_method_notes: Bliss excess, mean over the matrix (fraction); higher = more synergy
Below, each of the compounds is paired with its reported Bliss excess value.
recorded_endpoint: Bliss excess

• COc1nnc2ccc(N3CCC(c4ccc(OCCN5CCN(C)C(=O)[C@H]5C)cc4)CC3)nn12 [AZD5153] + Cc1c2c(nn1C)CSCc1cc(n(C)n1)CSc1cc(c3ccccc3c1)OCCCc1c(C(=O)O)n(C)c3c-2c(Cl)ccc13 [AZD5991] (first compound max 1 µM, 7x7, partner max 1 µM) = 0.0258
• Cc1c2c(nn1C)CSCc1cc(n(C)n1)CSc1cc(c3ccccc3c1)OCCCc1c(C(=O)O)n(C)c3c-2c(Cl)ccc13 [AZD5991] + CN(C)CCCOc1ccc(-c2ccc3ncc4c(c3c2)n(C2CCOCC2)c(=O)n4C)cn1 [AZD0156] (first compound max 1 µM, 7x7, partner max 1 µM) = -0.0092
• Cc1c2c(nn1C)CSCc1cc(n(C)n1)CSc1cc(c3ccccc3c1)OCCCc1c(C(=O)O)n(C)c3c-2c(Cl)ccc13 [AZD5991] + C[C@@H](Nc1cc(F)cc(F)c1)c1cc(C(=O)N(C)C)cc2c(=O)cc(N3CCOCC3)oc12 [AZD8186] (first compound max 1 µM, 7x7, partner max 3 µM) = 0.0293
• Cc1c2c(nn1C)CSCc1cc(n(C)n1)CSc1cc(c3ccccc3c1)OCCCc1c(C(=O)O)n(C)c3c-2c(Cl)ccc13 [AZD5991] + Cc1cc2ncnn2cc1Nc1ncc2c(n1)n(C1CCOCC1)c(=O)n2C [AZD7648] (first compound max 1 µM, 7x7, partner max 10 µM) = 0.0165
• NC1(C(=O)N[C@@H](CCO)c2ccc(Cl)cc2)CCN(c2ncnc3[nH]ccc23)CC1 [Capivasertib] + CCN(CCO)CCCOc1ccc2c(Nc3cc(CC(=O)Nc4cccc(F)c4)[nH]n3)ncnc2c1 [AZD2811] (first compound max 10 µM, 7x7, partner max 1 µM) = -0.0397
• C[C@@H](Nc1cc(F)cc(F)c1)c1cc(C(=O)N(C)C)cc2c(=O)cc(N3CCOCC3)oc12 [AZD8186] + C1CN(CCC1(C(=O)N[C@@H](CCO)C2=CC=C(C=C2)Cl)N)C3=NC=NC4=C3C=CN4 [AZD5363] (first compound max 10 µM, 7x7, partner max 10 µM) = 0.0092
• CN(C)CCCOc1ccc(-c2ccc3ncc4c(c3c2)n(C2CCOCC2)c(=O)n4C)cn1 [AZD0156] + C=CCn1c(=O)c2cnc(Nc3ccc(N4CCN(C)CC4)cc3)nc2n1-c1cccc(C(C)(C)O)n1 [AZD1775] (first compound max 1 µM, partner max 1 µM) = -0.0449
